Value source: ChEMBL document CHEMBL1146412

# assayOverview: Toxicity in iv dosed mouse
# Assay type: organism-based
# conditionsUsed: in vivo
readoutName: LD50 (mg/kg)

# compound, experimentalValue
data = [
    ("CCC(C)c1cc2c(Cl)c3c(c(O)c2c(=O)n1N)-c1c(O)c2c(c4c1[C@@H](C3)OCO4)O[C@H]1[C@@H](C2=O)[C@@H](O)C=C[C@H]1OC (stereo partly specified)", 1),
]
